Where do these numbers come from? They come from the Human Domainome abundance scans (Beltran et al. 2025).

B1: Far upstream element-binding protein 1, residues 184 to 257; numbered along this chain, Q96AE4 (parent)
chain: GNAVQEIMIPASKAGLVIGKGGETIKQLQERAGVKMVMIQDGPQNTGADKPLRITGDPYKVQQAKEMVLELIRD

Variants of: B1
experiment: abundance fitness (aPCA) (normalised: wild type 0, dead -1); higher = more abundant; growth selection in yeast, the domain comes from the species named
test.settings: Homo sapiens
TRUE means recorded abundance fitness is -0.09 or above; FALSE means it is below -0.09.

Take a look at these entries with their results.
Decide: is the reported value of abundance fitness for `G15T` equal to or greater than -0.09? FALSE

Determine whether this variant has abundance fitness no lower than -0.09: `M36D` FALSE

Check this variant for abundance fitness at or above -0.09: `Y59E` TRUE

Note: attention shifts to another entry.
Reported abundance fitness reaches at least -0.09 for `I54E` ? FALSE
